From: the Kinase Knowledgebase extract (Sharma et al. 2016)

# Assay System: MAPK14 (human)
# Protocol: Inhibition of LPS Induced TNF-alpha Release in Human PBMC
Endpoint: IC50

>>> print(df.to_string())
                                smiles_repr  reading
0  COc1ccc(C(=O)Nc2cc(NC(=O)c3cccc(N(C)C)c3)ccc2C)c(OC)c1  > 50 µM
1  Cc1ccc(NC(=O)c2cccc(N(C)C)c2)cc1NC(=O)c1ccc(O)cc1  > 50 µM
2  COc1ccc(C(=O)Nc2cc(NC(=O)c3cccc(N(C)C)c3)ccc2C)cc1  > 50 µM

###

# Assay System: MAPK14 (UniProt Q16539)
# Sequence (Q16539 whole entry, looked up): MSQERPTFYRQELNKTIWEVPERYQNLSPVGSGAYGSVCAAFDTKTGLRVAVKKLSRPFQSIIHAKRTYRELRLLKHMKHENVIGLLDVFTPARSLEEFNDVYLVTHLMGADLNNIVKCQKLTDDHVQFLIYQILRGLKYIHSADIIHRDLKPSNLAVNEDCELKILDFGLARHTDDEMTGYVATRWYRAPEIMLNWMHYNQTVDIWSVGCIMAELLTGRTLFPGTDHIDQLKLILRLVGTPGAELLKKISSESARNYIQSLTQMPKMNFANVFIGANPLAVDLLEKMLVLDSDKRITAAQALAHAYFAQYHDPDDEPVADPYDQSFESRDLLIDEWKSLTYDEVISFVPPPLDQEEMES
# Protocol: Inhibition of MAPK14 Kinase Activity
With a cut-off of 30 nM, any IC50 strictly below it is called 1 (yes); any IC50 meeting it or above is called 0 (no).

>>> print(df.to_string())
                                smiles_repr    group
0  Cc1nc(COc2ccc(C(=O)Nc3cc(NC(=O)c4cccc(N5CCOCC5)c4)ccc3C)cc2)cs1  1 (yes)
1  Cc1ccc(NC(=O)c2cccc(N3CCOCC3)c2)cc1NC(=O)c1ccc(OCc2ccncc2)cc1  1 (yes)
2  Cc1ccc(NC(=O)c2cccc(N3CCOCC3)c2)cc1NC(=O)c1ccc(OCc2cccnc2)cc1   0 (no)
3  Cc1ccc(NC(=O)c2cccc(N3CCOCC3)c2)cc1NC(=O)c1ccc(OCc2ccccc2)cc1   0 (no)
4  Cc1ccc(NC(=O)c2cc(F)cc(N3CCOCC3)c2)cc1NC(=O)c1ccc(OCc2cscn2)cc1  1 (yes)
5  Cc1ccc(NC(=O)c2cc(F)cc(N3CCOCC3)c2)cc1NC(=O)c1ccc(OCc2ccncc2)cc1  1 (yes)
6  Cc1ccc(NC(=O)c2cc(F)cc(N3CCOCC3)c2)cc1NC(=O)c1ccc(OCc2ccccn2)cc1   0 (no)
7  Cc1nc(COc2ccc(C(=O)Nc3cc(NC(=O)c4cc(F)cc(N5CCOCC5)c4)ccc3C)cc2)cs1   0 (no)
